Target: human CXCR3 (N-delta 4) (Homo sapiens)
Construct: CD8 leader (N); Flag tag (N); expressed in transfected cells; host or cells: mouse pro-B Ba/F3 cells, stably transfected with pME18Sneo-hCXCR3 (N-delta 4); membrane preparation
Sequence (P49682 5-368 limits assumed): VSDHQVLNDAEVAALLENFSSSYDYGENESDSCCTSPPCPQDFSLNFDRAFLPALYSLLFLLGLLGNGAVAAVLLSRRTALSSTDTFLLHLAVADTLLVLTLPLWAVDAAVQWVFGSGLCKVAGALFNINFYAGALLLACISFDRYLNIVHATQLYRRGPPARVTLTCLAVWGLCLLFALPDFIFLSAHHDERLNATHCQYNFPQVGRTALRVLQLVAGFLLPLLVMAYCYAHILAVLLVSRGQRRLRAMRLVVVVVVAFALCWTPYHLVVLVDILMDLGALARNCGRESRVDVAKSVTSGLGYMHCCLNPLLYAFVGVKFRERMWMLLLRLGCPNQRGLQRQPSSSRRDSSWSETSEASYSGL
Experiment: Human CXCR3 (N-delta 4) Scintillation Proximity Assay (SPA), [125I] IP-10 binding
Details: IC50 rating; Ba/F3-hCXCR3 (N-delta 4) membranes, 25 pM [125I] IP-10; read-out: IC50
From the text: The inventive compounds can readily be evaluated to determine activity at The CXCR3 receptors by known methods, such as, for example, Development of Human CXCR3 (N-delta 4) Binding Assay. Cloning and Expression of Human CXCR3 (N-delta 4): The DNA encoding human CXCR3 was cloned by PCR using human genomic DNA (Promega, Madison, Wis.) as a template. […]
pIC50: −log10 of the molar value.
Measured pIC50, listed per entry for reference.
recorded-metric: pIC50

                           structure_string  recorded_metric  recorded_measurement
0  CC[C@H]1CN(c2nc(N)c(-c3nnc(C)o3)nc2Cl)CCN1C1CCN(C(=O)c2ccc(Cl)cc2NC(=O)C(F)(F)F)CC1            pIC50          7.00 to 7.60
1  CC[C@H]1CN(c2nc(N)c(-c3nnc(C(N)=O)o3)nc2Cl)CCN1C1CCN(C(=O)c2ccc(Cl)nc2N)CC1            pIC50                > 7.60
2  CC[C@H]1CN(c2ncc(-c3nnc(N)[nH]3)nc2Cl)CCN1C1CCN(C(=O)c2ccc(Cl)cc2)CC1            pIC50                > 7.60
3  CC[C@H]1CN(c2nc(N)c(-c3nnc(C)o3)nc2Cl)CCN1C1CCN([C@@H](C(=O)OC)c2ccc(Cl)cc2)CC1            pIC50                > 7.60
4  CC[C@H]1CN(c2ncc(-c3nnc[nH]3)nc2C(F)(F)F)CCN1C1CCN(C(=O)c2ccc(Cl)cc2)CC1            pIC50                > 7.60
5  CC[C@H]1CN(c2ncc(-c3nnc(NC4(C)CC4)o3)nc2C)[C@H](C)CN1C1CCN(C(=O)c2ccc(Cl)nc2N)CC1            pIC50                > 7.60
6  CCNc1nnc(-c2cnc(N3CCN(C4CCN(C(=O)c5ccc(Cl)nc5N)CC4)[C@@H](CC)C3)c(C3CC3)n2)o1            pIC50          7.00 to 7.60
